Hello, the source for this data is patent US20110280940A1, in case you need it.

Test system: VM48 melanoma cells
test-details: MTT colorimetric assay, overall cell growth, VM48
Type: cell-based, human
cond: Homo sapiens; MTT, 72 hours of incubation; read-out: In Vitro IC50 Growth Inhibitory Values, VM48
pIC50: −log10 of the molar value.
readout: pIC50

Please review the following examples before continuing.
{"columns": ["compound", "target-or-system", "pIC50"],
 "data": [
  ["COc1cc(C(=O)OCCCCCCCOC(=O)c2ccc(O)c(OC)c2)ccc1O", "VM48 melanoma cells", 4.42],
  ["COc1cc(C(=O)O[C@H]2CCCC[C@H]2OC(=O)c2ccc(O)c(OC)c2)ccc1O", "VM48 melanoma cells", 4.24],
  ["COc1cc(C(=O)OCCCCOC(=O)c2ccc(O)c(OC)c2)ccc1O", "VM48 melanoma cells", 4.28],
  ["COc1cc(C(=O)OC2CCCC(OC(=O)c3ccc(O)c(OC)c3)C2)ccc1O (mixture of isomers)", "VM48 melanoma cells", 4.33],
  ["COc1cc(C(=O)OCCCCCCOC(=O)c2ccc(O)c(OC)c2)ccc1O", "VM48 melanoma cells", 4.25]
]}

P = COc1cc(C(=O)O[C@@H]2CCCC[C@H]2OC(=O)c2ccc(O)c(OC)c2)ccc1O
Q = COc1cc(C(=O)O[C@H]2CCC[C@H]2OC(=O)c2ccc(O)c(OC)c2)ccc1O
R = COc1cc(C(=O)OC2CCCC[C@@H]2OC(=O)c2ccc(O)c(OC)c2)ccc1O (stereo partly drawn)
(Q) Please order the records by their reported pIC50, lowest number first. Use the labels to give the requested order.
(A) P, R, Q

----------
System: LoVo colon cancer cells
test-details: MTT colorimetric assay, overall cell growth, LoVo
Type: cell-based, human
cond: 72 hours of incubation, read-out: In Vitro IC50 Growth Inhibitory Values, LoVo
readout: pIC50
A value of pIC50 is the negative decimal logarithm of a concentration given in moles per litre.

(Q) What value of pIC50 has been recorded for this entry: O=C(O[C@@H]1CCCC[C@H]1OC(=O)c1ccc(O)c(Cl)c1)c1ccc(O)c(Cl)c1 (relative stereo) [DLT30]
(A) 4.59

(Q) What does the record list as pIC50 for COc1cc(C(=O)O[C@H]2CCCCC[C@@H]2OC(=O)c2ccc(O)c(OC)c2)ccc1O (relative stereo) [DLT22] ?
(A) 4.36

(Q) Param item = COc1cc(C(=O)O[C@@H]2CC[C@@H](OC(=O)c3ccc(O)c(OC)c3)C2)ccc1O (stereo in doubt) [DLT19] ; retrieve measured pIC50.
(A) 4.74

(Q) Name the recorded pIC50 for COc1cc(C(=O)O[C@H]2CCC[C@@H]2OC(=O)c2ccc(O)c(OC)c2)ccc1O (stereo in doubt) [DLT15] .
(A) 4.55

----------
Test system: T98G glioma cells
test-details: MTT colorimetric assay, overall cell growth, T98G
Format: cell-based, human
cond: Homo sapiens, T98G, 72 hours of incubation, read-out: In Vitro IC50 Growth Inhibitory Values, T98G
readout: IC50 (µM)

{"columns": ["compound", "test-value"],
 "data": [
  ["O=C(OCCOC(=O)c1cc(O)c(O)c(O)c1)c1cc(O)c(O)c(O)c1", 28],
  ["O=C(OCCOC(=O)c1ccc(O)c(Cl)c1)c1ccc(O)c(Cl)c1", 45],
  ["COc1cc(C(=O)O[C@H]2CCCC[C@H]2OC(=O)c2ccc(O)c(OC)c2)ccc1O", 76]
]}

A = COc1cc(C(=O)O[C@H]2CCC[C@H]2OC(=O)c2ccc(O)c(OC)c2)ccc1O
B = COc1cc(C(=O)OC2CCCC[C@@H]2OC(=O)c2ccc(O)c(OC)c2)ccc1O (stereo partly drawn)
(Q) # query: argmin of IC50 over A and B Field: selected label. Fill in the label of the entry you choose.
(A) A
(A: 32 µM, B: 70 µM)
